test system: SF-268 CNS; experiment: NCI-60 one-dose screen, 48 h; settings: 10 µM unless noted
This is part of a sample that, as a whole, favours compounds with a hit. Of some 83,000 tested, about 20% had one in any assay. Calls of active or inactive are those of the source. Rule for the calls: active = growth percent below 10; inactive = the rest.
Labels: yes (1) for active, no (0) for inactive

| molecule | cat |
| --- | --- |
| CCN(CC)CCNC(=O)n1cc(-c2ccncc2)c(-c2cc(Cl)cc(OC)c2)n1 | no (0) |
| Nc1nc(N)c2cc(NCc3ccc(Cl)c(Cl)c3)ccc2n1 | yes (1) |
| COc1ccc(-c2nc3ccccc3n3cccc23)cc1 | no (0) |
| COc1cc(OC)c(Cl)cc1N | no (0) |
| CN1C(=O)N(C)C2C1NN=c1s/c(=C\c3ccsc3)c(=O)n12 (stereo unspecified) | no (0) |
| CC(=O)NC1C(O[C@H]2C[C@H]3[C@@H]4CC=C5C[C@@H](O)CC[C@]5(C)[C@H]4CC[C@]3(C)[C@H]2[C@H](C)C(=O)CCC(C)C)OCC(O)C1O (stereo partly specified) | no (0) |
| C=C1C(=O)O[C@H]2[C@H]1CC/C(COC(=O)NCc1c[nH]c3ccc(OC)cc13)=C\CC[C@@]1(C)O[C@@H]21 | no (0) |
| Fc1ccc(-c2nc(-c3ccc(-c4nc5ccc(F)cc5[nH]4)cc3)no2)cc1 | no (0) |
| COc1ccc(-c2nc3c(c(-c4ccc(Cl)cc4)nn3-c3ccccc3)c(-c3ccc(O)cc3)c2C#N)cc1 | no (0) |
| CC[C@H](C)[C@H](N)C(=O)O | no (0) |
| Cc1ccncc1NC=O | no (0) |
| N#Cc1ccc(-c2ccc(-c3cccs3)o2)cc1F | no (0) |
| COc1ccc2nc(C)cc(Sc3nc4ccccc4s3)c2c1 | no (0) |
| COc1cc(/C=C/c2cc(/C=C/c3ccc(O)c(OC)c3)n(C(=O)c3ccccc3Br)n2)ccc1O | no (0) |
| COc1cnc2c(c1)C(=O)c1c-2n(CCCN2CCCC2)c(=O)c2cc(Cl)ccc12 | no (0) |
| C#C[C@]1(O)CC[C@H]2[C@@H]3CC=C4c5sc(-c6cccc(Br)c6)nc5CC[C@]4(C)[C@H]3CC[C@@]21C | no (0) |
| CCCCCCCCOC(=O)C(C)OC(=O)OCCOCCOC(=O)OC(C)C(=O)OCCCCCCCC (stereo unspecified) | no (0) |
| Nc1c(C(=O)Nc2cccc(Cl)c2)sc2nc3c(cc12)C(=O)CCC3 | no (0) |
| COc1ccc2c(c1)OC1=C(C(=O)OC1)C2c1cc(OC)c2c(c1)OCCO2 (stereo unspecified) | no (0) |
| COCc1nc(NS(=O)(=O)c2ccc(N)cc2)nc(C)c1Br | no (0) |
| COc1ccc(C2c3cccn3-c3ccccc3N2C(C)=O)cc1 (stereo unspecified) | no (0) |
